molecular target: RORγt (Homo sapiens, UniProt P51449); construct: expressed in transfected cells; assay: RGA Assay: nuclear receptor transactivation assay, RORγt transactivation of a luciferase reporter; type: cell-based; conditions: transiently transfected HEK 293 cells (pGL4.3 luc2P/GAL4UAS, pBIND Gal4DBD hRORC LBD), 20-24 hours incubation, luciferase readout
READOUT_KIND: IC50 (µM)

COMPOUND | EXPERIMENTAL_TARGET | UNIT | IC50
CCS(=O)(=O)c1ccc(CNC(=O)N2CC3(CCCC3)c3nc(-c4cnc(C#N)nc4C4CC4)ccc32)cc1 [Example 64] | RORγt (Homo sapiens, UniProt P51449) | µM | 16
Cc1cc(O)ccc1-c1ccc2c(n1)C(C)(C)CN2C(=O)NCc1ccc(S(C)(=O)=O)cc1 [Example 21] | RORγt (Homo sapiens, UniProt P51449) | µM | 12

(1) COc1ncnc(C(F)(F)F)c1-c1ccc2c(n1)C1(CCCC1)CN2C(=O)NCc1ccc(S(C)(=O)=O)cc1 [Example 75]
(2) COc1ccc(-c2ccc3c(n2)C(C)(C)CN3C(=O)NCc2ccc(C#N)cc2)c(C(F)(F)F)c1 [Example 4]
(3) CNS(=O)(=O)c1ccc(CNC(=O)N2CC(C)(C)c3nc(-c4cnc(OC)cc4C)ccc32)cc1 [Example 44]
-- ask Sequence the entries by IC50, beginning with the highest number. // format: requested-order list of labels
-- reply 3, 2, 1

(a) CC(C)c1ncncc1-c1ccc2c(n1)C1(CCCC1)CN2C(=O)NCc1ccc(S(C)(=O)=O)cc1 [Example 56]
(b) CNS(=O)(=O)c1ccc(CNC(=O)N2CC(C)(C)c3nc(-c4ccc(O)cc4C)ccc32)cc1 [Example 43]
-- ask Hi team, can someone confirm which has the larger IC50: a or b ? Thanks. // respond with label for picked entry
-- reply b
(b: 8.5 µM, a: 1.6 µM)

(a) CNS(=O)(=O)c1ccc(CNC(=O)N2CC3(CCCC3)c3nc(-c4ccc(OC)cc4C(F)(F)F)ccc32)cc1 [Example 51]
(b) CCS(=O)(=O)c1ccc(CNC(=O)N2CC3(CCCC3)c3nc(-c4ccc(O)cc4C(F)(F)F)ccc32)cc1 [Example 11]
-- ask Which of the two items, a and b , has the greater recorded IC50? Answer with the label corresponding to your selection.
-- reply a

###

target: RORγt (Homo sapiens); experiment: RGA Assay: nuclear receptor transactivation assay, RORγt transactivation of a luciferase reporter; conditions: transiently transfected HEK 293 cells (pGL4.3 luc2P/GAL4UAS, pBIND Gal4DBD hRORC LBD), 20-24 hours incubation, luciferase readout
READOUT_KIND: IC50 (µM)

COMPOUND | EXPERIMENTAL_TARGET | IC50, µM
COc1cc(C)c(-c2ccc3c(n2)C2(CCCC2)CN3C(=O)NCc2ccc(C#N)cc2)cn1 | RORγt (Homo sapiens) | 15
CCS(=O)(=O)c1ccc(CNC(=O)N2CC3(CCCC3)c3nc(-c4ccc(O)cc4C)ccc32)cc1 | RORγt (Homo sapiens) | 0.48
CCc1ncnc(C2CC2)c1-c1ccc2c(n1)C1(CCCC1)CN2C(=O)NCc1ccc(S(=O)(=O)CC)cn1 | RORγt (Homo sapiens) | 0.42
CCC1(C)CN(C(=O)NCc2ccc(S(=O)(=O)CC)cc2)c2ccc(-c3c(OC)ncnc3C3CC3)nc21 (centres unmarked) | RORγt (Homo sapiens) | 1.5
CCS(=O)(=O)c1ccc(CNC(=O)N2CC3(CCCC3)c3nc(-c4c(C)nn(C)c4C)ccc32)cc1 | RORγt (Homo sapiens) | 16
CC(C)Oc1ncnc(C2CC2)c1-c1ccc2c(n1)C1(CCCC1)CN2C(=O)NCc1ccc(S(C)(=O)=O)cc1 | RORγt (Homo sapiens) | 2.5
CCOc1ncnc(C2CC2)c1-c1ccc2c(n1)C1(CCCC1)CN2C(=O)NCc1ccc(S(C)(=O)=O)cc1 | RORγt (Homo sapiens) | 1.1
CCS(=O)(=O)c1ccc(CNC(=O)N2CC3(CCCC3)c3nc(-c4ccc(F)cc4C)ccc32)cc1 | RORγt (Homo sapiens) | 3.4

(P) CC1(C)CN(C(=O)NCc2ccc(S(C)(=O)=O)cc2)c2ccc(Oc3ccc(F)c(OC(F)(F)F)c3)nc21
(Q) COc1ccc(-c2cc3c(cn2)N(C(=O)NCc2ccc(S(C)(=O)=O)cc2)CC3(C)C)c(C(F)(F)F)c1
(R) COc1ncnc(C2CC2)c1-c1ccc2c(n1)C1(CCCC1)CN2C(=O)NCc1ccc(S(C)(=O)=O)cc1
(S) COc1ccc(-c2ccc3c(n2)C2(CCCC2)CN3C(=O)NCc2ccc(S(C)(=O)=O)cc2)c(C(F)(F)F)c1
-- ask Exam item: list the entries in increasing order of IC50. Order the labels as requested and give them as your answer.
-- reply R, S, Q, P

(P) COc1ccc(-c2ccc3c(n2)C(C)(C)CN3C(=O)NCc2ccc(S(C)(=O)=O)cc2)c(C(F)(F)F)c1
(Q) CCS(=O)(=O)c1ccc(CNC(=O)N2CC(C)(C)c3nc(-c4c(OC)ncnc4C(F)(F)F)ccc32)cc1
-- ask Kindly compare P with Q and tell me which has the lower IC50 figure. Bench note: the answer is the label of the chosen record.
-- reply Q
(Q: 1.5 µM, P: 3.4 µM)

###

Target: RORγt (Homo sapiens, UniProt P51449)
Sequence (P51449 269-508 limits assumed): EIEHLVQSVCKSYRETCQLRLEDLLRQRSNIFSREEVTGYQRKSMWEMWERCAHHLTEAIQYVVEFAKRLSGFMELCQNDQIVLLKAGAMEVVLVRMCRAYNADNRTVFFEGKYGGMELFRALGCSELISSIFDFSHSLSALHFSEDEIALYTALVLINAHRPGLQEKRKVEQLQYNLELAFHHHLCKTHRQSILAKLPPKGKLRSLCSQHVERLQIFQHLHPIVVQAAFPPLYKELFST
Assay: RGA Assay: nuclear receptor transactivation assay, RORγt transactivation of a luciferase reporter
Conditions: transiently transfected HEK 293 cells (pGL4.3 luc2P/GAL4UAS, pBIND Gal4DBD hRORC LBD), 20-24 hours incubation, luciferase readout
Description: A nuclear receptor transactivation assay was performed to quantitate the ability of test compounds to inhibit RORγt transactivation of a luciferase reporter. A similar assay is described in: Khan et al., Bioorganic & Medicinal Chemistry Letters 23 (2013), 532-536. The system uses transiently transfected HEK 293 cells cotransfected with two plasmids (pGL4.3, luc2P/GAL4UAS/Hygro, and pBIND, Ga14DBD hRORC LBD1-3). […] The plates were read on an Envision plate reader to measure luminescence signal. […]
READOUT_KIND: IC50 (µM)

COMPOUND | EXPERIMENTAL_VALUE
CCS(=O)(=O)c1ccc(CNC(=O)N2CC3(CCCC3)c3nc(-c4sc(OC)nc4C)ccc32)cc1 [Example 27] | 8

(A) CNS(=O)(=O)c1ccc(CNC(=O)N2CC(C)(C)c3nc(Oc4ccc(F)c(OC(F)(F)F)c4)ccc32)cc1 [Example 49]
(B) CCS(=O)(=O)c1ccc(CNC(=O)N2CC3(CCCC3)c3nc(-c4c(C)ncnc4C)ccc32)cc1 [Example 24]
(C) COC1CCCN(c2ccc(-c3ccc4c(n3)C3(CCCC3)CN4C(=O)NCc3ccc(S(C)(=O)=O)cc3)c(C)n2)C1 (stereo not shown) [Example 6]
(D) CCS(=O)(=O)c1ccc(CNC(=O)N2CC3(CCCC3)c3nc(-c4c(OC(C)C)ncnc4C4CC4)ccc32)cc1 [Example 67]
-- ask Arrange the 4 compounds by rising IC50, starting with the smallest. # respond with the labels, arranged in the requested order
-- reply D, A, B, C
(D: 0.83 µM, A: 4.1 µM, B: 5.9 µM, C: 24 µM)

###

Target: RORγt (Homo sapiens)
Sequence (P51449 269-508 limits assumed): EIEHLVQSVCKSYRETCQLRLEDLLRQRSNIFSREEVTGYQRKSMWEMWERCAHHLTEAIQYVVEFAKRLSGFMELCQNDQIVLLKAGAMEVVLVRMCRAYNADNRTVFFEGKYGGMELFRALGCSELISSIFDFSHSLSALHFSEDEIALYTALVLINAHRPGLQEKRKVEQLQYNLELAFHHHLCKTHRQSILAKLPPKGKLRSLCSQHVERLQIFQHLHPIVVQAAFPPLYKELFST
Assay: RGA Assay: nuclear receptor transactivation assay, RORγt transactivation of a luciferase reporter
Settings: transiently transfected HEK 293 cells (pGL4.3 luc2P/GAL4UAS, pBIND Gal4DBD hRORC LBD), 20-24 hours incubation, luciferase readout
Procedure: A nuclear receptor transactivation assay was performed to quantitate the ability of test compounds to inhibit RORγt transactivation of a luciferase reporter. A similar assay is described in: Khan et al., Bioorganic & Medicinal Chemistry Letters 23 (2013), 532-536. The system uses transiently transfected HEK 293 cells cotransfected with two plasmids (pGL4.3, luc2P/GAL4UAS/Hygro, and pBIND, Ga14DBD hRORC LBD1-3). […] The plates were read on an Envision plate reader to measure luminescence signal. […]
READOUT_KIND: IC50 (µM)

CPD_SMILES | EXPERIMENTAL_VALUE
CNS(=O)(=O)c1ccc(CNC(=O)N2CC(C)(C)c3nc(-c4ccc(OC)cc4C(F)(F)F)ccc32)cc1 | 1.8
Cc1cc(C)c(Oc2ccc3c(n2)C2(CCCC2)CN3C(=O)NCc2ccc(S(C)(=O)=O)cc2)cn1 | 8.5
CCS(=O)(=O)c1ccc(CNC(=O)N2CC3(CCCC3)c3nc(-c4cncnc4C(F)(F)F)ccc32)cc1 | 2.1

(P) CCS(=O)(=O)c1ccc(CNC(=O)N2CC3(CCCC3)c3nc(-c4ncc(N(C)C)nc4C4CC4)ccc32)cc1
(Q) CNS(=O)(=O)c1ccc(CNC(=O)N2CC3(CCCC3)c3nc(Oc4cnc(C)cc4C)ccc32)cc1
(R) CNS(=O)(=O)c1ccc(CNC(=O)N2CC3(CCCC3)c3nc(-c4cnc(OC)cc4C)ccc32)cc1
(S) CCS(=O)(=O)c1ccc(CNC(=O)N2CC3(CCCC3)c3nc(-c4c(OC)ncnc4C(F)(F)F)ccc32)cc1
-- ask Hey, quick one: sort these by IC50, largest value first please. Please respond by ranking the labels in the order requested.
-- reply Q, R, P, S
